tested on: HCT-15 colon; experiment: NCI-60 one-dose screen, 48 h (100 = growth as untreated, 0 = no growth, -100 = all killed); details: 10 µM
Compounds without any hit were thinned out: in the full panel of roughly 83,000, 20% have a hit.
readoutKind: growth (%)
Number only, in %; omit the unit.

>>> measurement("CCOC(=O)C(=O)C=P(c1ccccc1)(c1ccccc1)c1ccccc1")
102
>>> measurement("CC(C)OC(=O)c1cc(NC(=S)OC(C)C)ccc1Cl")
87.8
>>> measurement("C[C@@H](c1ccccc1)[C@@H](C(=O)O)c1ccccc1")
95.4
>>> measurement("O=[N+]([O-])c1ccc(S(=O)(=O)NN=C2CCCCC2)cc1")
115
>>> measurement("OCC1OC(OC2C(O)C(CO)OC2(CO)OC2OC(CO)C(O)C(O)C2O)C(O)C(O)C1O (configuration not stated)")
107

Input line: growth for `CCS(=O)(=O)CCCl` ?
Output line: 91.8

Input line: growth for `N#CSc1cc(S(N)(=O)=O)ccc1N` ?
Output line: 108

Input line: growth for `O=C(Cc1nc2ccc([N+](=O)[O-])cc2nc1CC(=O)c1cccnc1)c1cccnc1` ?
Output line: 58.3

Input line: growth for `O=C(c1ccc(Cl)cc1)c1ccccc1Cl` ?
Output line: 95.8

Input line: growth for `O=C(O)CSCSCC(=O)O` ?
Output line: 98.7

Input line: growth for O=C(O)CCC(=O)OC(C1CO1)C(OC(=O)CCC(=O)O)C1CO1 (configuration not stated) ?
Output line: 97.9

Input line: growth for `O=[N+]([O-])c1ccc(N=Nc2ccccc2)cc1` ?
Output line: 100

###

Tested on: M14 melanoma
Experiment: NCI-60 one-dose screen, 48 h
Conditions: 10 µM
Protocol: Growth inhibition of the M14 human tumor cell line is measured as a screen for anti-cancer activity. Cells are grown in 96 well plates and exposed to the test compound for 48 hours. Compounds are tested at a single concentration, which is 10^-5 M for most compounds. The reported endpoint is percent growth (GI% or GIPRCNT), where numbers from 0 - 100% represent growth inhibition, and numbers from -100% - 0 represent cell death. For example, a value of 40 represents 60% growth inhibition. […]
Compounds without any hit were thinned out: in the full panel of roughly 83,000, 20% have a hit. Active and inactive are the calls of the source. Rule for the calls: active = growth percent below 10; inactive = the rest.
Respond using exactly one of the listed classes: active, inactive

Below are worked cases with known answers.
>>> labelclass("CC(=O)OC1CC2C(C)(C)OC3CC(=O)OCC32C2CCC3(C)C(=CCC3c3ccoc3)C12C (configuration not stated)")
"inactive"
>>> labelclass("C/C(O)=C(\\C=N\\C(N)=S)C(=O)Nc1ccccc1")
"inactive"
>>> labelclass("O=c1c2ccccc2c(Br)c(Br)c2ccccc12")
"active"
>>> labelclass("Cc1cc(/C=C/c2ccc3cc(N(C)C)ccc3[n+]2C)c(C)n1-c1ccccc1")
"active"
>>> labelclass("CN(C)c1nc2c([nH]1)c(=O)n(C)c(=O)n2C")
"inactive"

Input line: Name the outcome recorded for `O=C(Cc1nc2ccc([N+](=O)[O-])cc2nc1CC(=O)c1ccccc1)c1ccccc1` in the assay.
Output line: inactive

Input line: Name the outcome recorded for CC1(C)/C(=C\CO)C2CCC1C2 (configuration not stated) in the assay.
Output line: inactive

Input line: Name the outcome recorded for `CC(=O)N(C)c1ccc([N+](=O)[O-])cc1` in the assay.
Output line: inactive

Input line: Name the outcome recorded for `C=CCNc1nnc(C)s1` in the assay.
Output line: inactive

Input line: Name the outcome recorded for `N#Cc1ccc(OC(=O)Nc2ccc(Cl)c(Cl)c2)cc1` in the assay.
Output line: inactive

Input line: Name the outcome recorded for `Cc1nc2c(ccc3ccccc32)s1` in the assay.
Output line: inactive

Input line: Name the outcome recorded for `CCOC(=O)c1cc2cccc(OC)c2oc1=O` in the assay.
Output line: inactive
